# system: ATP-binding cassette transporter A1 (ABCA1) (UniProt P41233 1-2261, limits assumed)
# Sequence (P41233 whole entry): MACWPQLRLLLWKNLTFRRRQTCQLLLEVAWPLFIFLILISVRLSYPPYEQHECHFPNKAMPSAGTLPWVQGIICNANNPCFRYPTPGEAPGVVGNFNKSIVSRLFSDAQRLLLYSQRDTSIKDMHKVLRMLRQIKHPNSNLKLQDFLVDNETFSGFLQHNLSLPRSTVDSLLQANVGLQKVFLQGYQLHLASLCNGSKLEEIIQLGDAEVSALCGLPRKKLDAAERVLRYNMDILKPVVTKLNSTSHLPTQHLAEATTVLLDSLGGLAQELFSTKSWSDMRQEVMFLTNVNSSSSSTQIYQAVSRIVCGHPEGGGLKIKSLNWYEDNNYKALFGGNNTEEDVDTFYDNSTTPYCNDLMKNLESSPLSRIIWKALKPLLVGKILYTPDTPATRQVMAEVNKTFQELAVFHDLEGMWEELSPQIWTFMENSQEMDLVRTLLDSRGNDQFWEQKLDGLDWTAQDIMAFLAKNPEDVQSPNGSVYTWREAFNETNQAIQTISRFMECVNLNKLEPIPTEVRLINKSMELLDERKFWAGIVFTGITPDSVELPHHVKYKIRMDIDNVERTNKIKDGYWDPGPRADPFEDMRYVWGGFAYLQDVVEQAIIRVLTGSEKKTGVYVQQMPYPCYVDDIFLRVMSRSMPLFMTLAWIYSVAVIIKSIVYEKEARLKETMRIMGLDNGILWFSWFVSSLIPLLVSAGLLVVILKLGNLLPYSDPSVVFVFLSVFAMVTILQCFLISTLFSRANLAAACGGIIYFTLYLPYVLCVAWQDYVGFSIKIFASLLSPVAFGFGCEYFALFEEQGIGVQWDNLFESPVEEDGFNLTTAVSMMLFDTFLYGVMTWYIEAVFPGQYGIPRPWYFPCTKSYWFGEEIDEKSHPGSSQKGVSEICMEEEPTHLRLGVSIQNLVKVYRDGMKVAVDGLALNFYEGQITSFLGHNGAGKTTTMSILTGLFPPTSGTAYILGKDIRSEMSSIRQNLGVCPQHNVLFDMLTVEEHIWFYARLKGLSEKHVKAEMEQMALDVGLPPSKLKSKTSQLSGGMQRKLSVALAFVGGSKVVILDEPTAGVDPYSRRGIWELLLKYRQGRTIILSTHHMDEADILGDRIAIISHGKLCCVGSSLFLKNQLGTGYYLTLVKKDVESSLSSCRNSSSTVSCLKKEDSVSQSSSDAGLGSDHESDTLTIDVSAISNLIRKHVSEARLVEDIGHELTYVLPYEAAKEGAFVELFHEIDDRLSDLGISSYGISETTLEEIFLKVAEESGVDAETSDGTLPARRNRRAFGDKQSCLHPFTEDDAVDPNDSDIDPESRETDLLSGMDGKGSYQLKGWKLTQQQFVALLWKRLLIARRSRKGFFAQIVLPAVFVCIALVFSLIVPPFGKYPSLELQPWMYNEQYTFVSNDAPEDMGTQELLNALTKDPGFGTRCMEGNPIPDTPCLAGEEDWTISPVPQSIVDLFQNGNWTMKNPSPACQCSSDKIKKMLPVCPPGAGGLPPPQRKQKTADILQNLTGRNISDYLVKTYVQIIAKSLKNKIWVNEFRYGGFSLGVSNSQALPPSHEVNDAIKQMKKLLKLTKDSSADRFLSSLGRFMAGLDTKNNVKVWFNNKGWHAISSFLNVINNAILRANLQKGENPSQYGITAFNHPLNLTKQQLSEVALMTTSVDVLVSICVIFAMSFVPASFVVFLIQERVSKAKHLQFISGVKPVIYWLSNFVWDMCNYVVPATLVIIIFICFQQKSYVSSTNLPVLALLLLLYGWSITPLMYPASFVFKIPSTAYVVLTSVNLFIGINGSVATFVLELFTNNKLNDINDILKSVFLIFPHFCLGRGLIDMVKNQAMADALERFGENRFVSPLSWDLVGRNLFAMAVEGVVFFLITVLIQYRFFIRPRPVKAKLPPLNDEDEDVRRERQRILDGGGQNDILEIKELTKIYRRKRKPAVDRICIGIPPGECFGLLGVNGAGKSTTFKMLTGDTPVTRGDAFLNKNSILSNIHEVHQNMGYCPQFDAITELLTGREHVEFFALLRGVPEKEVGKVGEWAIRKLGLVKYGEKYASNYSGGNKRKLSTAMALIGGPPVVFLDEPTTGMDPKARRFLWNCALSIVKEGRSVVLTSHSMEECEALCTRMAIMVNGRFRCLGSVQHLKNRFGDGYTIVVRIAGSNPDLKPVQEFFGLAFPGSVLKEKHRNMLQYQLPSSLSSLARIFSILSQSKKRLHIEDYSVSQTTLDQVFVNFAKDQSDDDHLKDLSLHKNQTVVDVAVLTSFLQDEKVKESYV
# assay info: cell-based or functional assay
assay endpoint: % cholesterol efflux/4 hours at 30 µg/ml (%)

>>> obs_value("DLRDKLDAWLDLLRDLLDRL [N1154-9]")
4.35
>>> obs_value("ELRERLEAWLELLRELLERL [N1154-7]")
3.28
>>> obs_value("ELREKLEAWLELLRELLERL [N1154-6]")
2.71
>>> obs_value("ELRDRLEAWLDLLRELLERL [N1154-10]")
3.7
